The molecules listed here are annotated with their TGI.
Test system: HL-60(TB) leukemia
protocol_description: NCI tumour cell line growth inhibition, 48 h
experimental_readout: TGI

molecule: Cc1ccc(-c2cc(-c3ccco3)nc(N)n2)o1
recorded_result: > 100 µM
--
molecule: O=C1C(=O)c2ccc(Br)cc2-c2cc(Br)ccc21
recorded_result: 1.71 µM
--
molecule: COc1ccc(-n2c(CCCC(=O)O)nc3c2C(=O)c2ccccc2C3=O)cc1
recorded_result: > 100 µM
--
molecule: C[N+]1(C)CC=C(N2CCOCC2)CC1
recorded_result: > 10 µM
--
molecule: COc1ccc(C[C@@H]2CN(C(=O)c3ccccc3)[C@H](Cc3ccc(O)cc3)CN2C(=O)c2ccccc2)cc1Br
recorded_result: > 100 µM
--
molecule: Nc1nc2ncn(CCO)c2c(=O)[nH]1
recorded_result: > 100 µM
--
molecule: COc1ccc(C(=O)C2CC3(CCC2(O)c2ccc(OC)cc2)CC(=O)Nc2ccccc2C3=O)cc1 (configuration not stated)
recorded_result: > 100 µM
--
molecule: C=CCN1C(=O)CS/C1=N\NC(=O)c1c(C)nc2sccn12
recorded_result: > 100 µM
--
molecule: Oc1ccc(-c2cc(-c3c(O)cc(O)cc3O)on2)cc1
recorded_result: > 100 µM
--
molecule: O=S(=O)(c1cccc(C(F)(F)F)c1)N1c2ccccc2-n2cccc2C1c1cccnc1 (configuration not stated)
recorded_result: 28.3 µM
--
molecule: COc1cc2c(cc1O)[C@H](C)C(c1ccc(Cl)cc1)O2 (some centres not stated)
recorded_result: 35.6 µM
--
molecule: Cn1ncc2c(Nc3ccc(Br)cc3)nc(Nc3ccc(Br)cc3)nc21
recorded_result: 5.85 µM
--
molecule: N#Cc1c(-c2ccco2)c2c(n(C3OC(CO)C(O)C(O)C3O)c1=S)CCCC2 (configuration not stated)
recorded_result: > 100 µM
--
molecule: CC(C)CN1CN(c2ccccc2)C2(CCN(CC(C)(c3ccc(F)cc3)C3OCCO3)CC2)C1=O (configuration not stated)
recorded_result: 12.8 µM
--
molecule: CC(C)(C)C1CC[C@H]2c3c([nH]c4ccc(Br)cc34)[C@H]3C(=O)N(c4ccccc4)C(=O)[C@H]3[C@H]2C1 (some centres not stated)
recorded_result: 35.1 µM
--
molecule: CCOC(C)OCC#CCCBr (configuration not stated)
recorded_result: > 100 µM
--
molecule: ClCCN(CCCl)Cc1ccc(Nc2ccnc3cc(Cl)ccc23)cc1
recorded_result: 3.07 µM
--
molecule: O=C(Cn1ccnc1[N+](=O)[O-])N(CCO)CCO
recorded_result: > 1250 µM
--
molecule: COC(=O)/C(=C/c1ccc(OC)cc1)C(C(=O)O)=C(C)C
recorded_result: > 100 µM
--
molecule: O=C(Cc1ccc(Cl)c(Cl)c1)NCCCN1CCN(CCCN2CCCCC2)CC1
recorded_result: 37.2 µM
--
molecule: COc1ccc(CNc2cc(OC)cc(OC)c2)cc1
recorded_result: > 100 µM
--
molecule: O=C(/C=C/c1ccc(OCCCCCCCCCCOc2ccc(/C=C/C(=O)c3ccc(Cl)cc3)cc2)cc1)c1ccc(Cl)cc1
recorded_result: > 100 µM

* * *

The molecules listed here are annotated with their TGI.
System: LOX IMVI melanoma
protocol_description: NCI tumour cell line growth inhibition, 48 h

molecule: CCCOC(=O)N[C@H]1CCc2c(Br)c(OC)c(OC)c(OC)c2-c2ccc(SC)c(=O)cc21
target_desc: LOX IMVI melanoma
TGI: 11.5 µM
//
molecule: COc1cc(-c2c3c(cn2S(=O)(=O)c2ccccc2)-c2nc(N)sc2CC3)cc(OC)c1OC
target_desc: LOX IMVI melanoma
TGI: > 100 µM
//
molecule: O=S(=O)(O)c1ccc(NN(c2c(O)ccc3ccccc23)S(=O)(=O)O)cc1
target_desc: LOX IMVI melanoma
TGI: > 100 µM
//
molecule: CC1OCC2OC(C)OC(C3C4=C(CC(C)(C)CC4=O)OC4=C3C(=O)CC(C)(C)C4)C2O1 (stereo unspecified)
target_desc: LOX IMVI melanoma
TGI: > 100 µM
//
molecule: O=C1C=C(SCCO)C(=O)c2ccccc21
target_desc: LOX IMVI melanoma
TGI: 3.26 µM
//
molecule: Nc1nc2ncn(CCO)c2c(=O)[nH]1
target_desc: LOX IMVI melanoma
TGI: > 100 µM
//
molecule: CN(C)CC1CCC/C(=C\c2ccc(N(C)C)cc2)C1=O (stereo unspecified)
target_desc: LOX IMVI melanoma
TGI: 3.16 µM
//
molecule: N#CI1OC(=O)c2ccccc21
target_desc: LOX IMVI melanoma
TGI: > 100 µM
//
molecule: CS(=O)(=O)NNS(=O)(=O)c1ccc(Br)cc1
target_desc: LOX IMVI melanoma
TGI: > 100 µM
//
molecule: CN(C)c1c(Cl)c(=O)oc2c1ccc1nc(-c3ccccc3)sc12
target_desc: LOX IMVI melanoma
TGI: > 100 µM
//
molecule: COc1ccc(-c2cc(C(=O)Nc3cccc(C(F)(F)F)c3)[nH]c(=S)n2)cc1
target_desc: LOX IMVI melanoma
TGI: > 100 µM

* * *

Test system: HT29 colon
protocol_description: NCI tumour cell line growth inhibition, 48 h

compound: Cc1c2c(n3c(nc4ccccc43)c1C#N)N(c1ccc(Cl)cc1)CC2
TGI: > 100 µM

compound: O=C(c1ccccc1)c1ccc(-c2ccc(O)cc2)cc1
TGI: > 100 µM

compound: COC(=O)c1ccc(CN2CCc3c([nH]c4ccccc34)C2CO)o1 (stereo unspecified)
TGI: > 10 µM

compound: O=C(Cc1ccccc1)Oc1ccc2c(-c3ccccc3)c(C(=O)Nc3ccc(Cl)cc3)c(=O)oc2c1
TGI: > 100 µM

compound: Nc1ccccc1C#C/C=C\C#Cc1ccc(F)cc1F
TGI: > 100 µM

compound: CN(C)CCC1(C2=CCCC2)CC/C(=C\c2ccc3c(c2)OCO3)C1=O (stereo unspecified)
TGI: 25.2 µM

* * *

System: NCI/ADR-RES ovarian
protocol_description: NCI tumour cell line growth inhibition, 48 h; in the data active means GI50 below about 0.43 µM; inactive means the rest
Classes used: active, inactive

compound: COC1=CC(c2ccc[nH]2)=N/C1=C\c1[nH]c(C)c(C(=O)CCC(=O)Oc2ccc3c(c2)CCC2C3CC[C@]3(C)C(=O)CC[C@@H]23)c1C (stereo not given in full)
assigned_label: inactive
--
compound: COc1ccc2c(c1)O/C(=C\c1cccc(OCC(=O)Nc3nc4ccccc4s3)c1)C2=O
assigned_label: inactive
--
compound: CCCOC(=O)N[C@H]1CCc2c(Br)c(OC)c(OC)c(OC)c2-c2ccc(SC)c(=O)cc21
assigned_label: active
--
compound: O=C1C=C(SCCO)C(=O)c2ccccc21
assigned_label: inactive
--
compound: Cn1ncc2cc(-c3cnc(N)c(Cl)c3N3CCC4(CCNC4=O)CC3)ccc21
assigned_label: inactive

* * *

System: NCI-H460 lung
Where a SMILES comes first, the peptide text is derived from it. [ ]: non-standard residue; d: D form. The star is where a group is joined. ξ: configuration not given here. X16 = COC1=CC(=O)N(C(=O)C(O*)C(C)C)C1Cc1ccccc1; ξNMe2Val = CC(C)C(C(=O)*)N(C)C; NMeV = CN[CH](C(=O)O)C(C)C
Classes used: active, inactive

molecule: COc1cc(-c2c3c(cn2S(=O)(=O)c2ccccc2)-c2nc(N)sc2CC3)cc(OC)c1OC
target_desc: NCI-H460 lung
assigned_label: inactive
--
molecule: CCC(=O)Sc1ccccc1C(=O)Nc1ccc(Cl)cc1
target_desc: NCI-H460 lung
assigned_label: inactive
--
molecule: CCN(CC)c1ccc(NC(C(=O)c2ccccc2)c2ccccc2)cc1 (stereo unspecified)
target_desc: NCI-H460 lung
assigned_label: inactive
--
molecule: Nc1ccccc1C#C/C=C\C#Cc1ccc(F)cc1F
target_desc: NCI-H460 lung
assigned_label: inactive
--
molecule: O=C1Nc2ccc(F)c3c(OCCO)cc(-c4ccc[nH]4)c1c23
target_desc: NCI-H460 lung
assigned_label: inactive
--
molecule: CC1(C)CCC(S(=O)(=O)c2ccc3c(c2)/C(=N\O)c2cc(S(=O)(=O)N4CCC(O)(c5cccc(C(F)(F)F)c5)CC4)ccc2-3)CC1
target_desc: NCI-H460 lung
assigned_label: active
--
molecule: C[C@@H]1O[C@@H](O[C@H]2C[C@@H](O)[C@]3(CO)C4C(CC[C@]3(O)C2)[C@@]2(O)CC[C@H](C3=CC(=O)OC3)[C@@]2(C)C[C@H]4O)[C@H](O)[C@H](O)[C@H]1O (stereo partly specified)
target_desc: NCI-H460 lung
assigned_label: active
--
molecule: C=C1C(=O)O[C@H]2[C@H]1CC/C(COC(=O)OCCCCCOC(=O)OC/C1=C/CC[C@@]3(C)O[C@H]3[C@H]3OC(=O)C(=C)[C@@H]3CC1)=C\CC[C@@]1(C)O[C@@H]21
target_desc: NCI-H460 lung
assigned_label: inactive
--
molecule: COc1ccc(C2C3=C(NC(=O)C2C#N)c2ccc4ccccc4c2OCC3)cc1 (stereo unspecified)
target_desc: NCI-H460 lung
assigned_label: inactive
--
molecule: OCC(O)CC[CH2][Sn]([c]1ccccc1)([c]1ccccc1)[c]1ccccc1 (stereo unspecified)
target_desc: NCI-H460 lung
assigned_label: inactive
--
molecule: COC1=CC(c2ccc[nH]2)=N/C1=C\c1[nH]c(C)c(C(=O)CCC(=O)Oc2ccc3c(c2)CCC2C3CC[C@]3(C)C(=O)CC[C@@H]23)c1C (stereo partly specified)
target_desc: NCI-H460 lung
assigned_label: inactive
--
molecule: O=C(CC12CC3CC(CC(C3)C1)C2)NCCOCCOCCNC(=O)c1cc2c(o1)C(=O)c1ccccc1C2=O
target_desc: NCI-H460 lung
assigned_label: active
--
molecule: COC1=CC(=O)N(C(=O)C(OC(=O)C2CCCN2C(=O)C2CCCN2C(=O)C(C(C)C)N(C)C(=O)C(NC(=O)C(C(C)C)N(C)C)C(C)C)C(C)C)C1Cc1ccccc1 (stereo unspecified) (ξNMe2Val-V[NMeV]PP-X16; configuration not given here)
target_desc: NCI-H460 lung
assigned_label: active
--
molecule: C[C@]12CC[C@H](O)CC1=CC[C@@H]1[C@@H]2CC[C@]2(C)C(=O)/C(=C/c3cccc(OCCCn4ccnc4)c3)C[C@@H]12
target_desc: NCI-H460 lung
assigned_label: inactive
--
molecule: CC(=O)[CH-]C(=O)c1ccccc1.CC(=O)[CH-]C(=O)c1ccccc1.[Nd+3].[OH-].[OH3+]
target_desc: NCI-H460 lung
assigned_label: inactive
--
molecule: COc1ccc(-c2cc3cccc(OC)c3c(=O)o2)cc1OC
target_desc: NCI-H460 lung
assigned_label: inactive

Where these numbers come from: PubChem BioAssay (NCI)
